# melting point annotations
Counter-ions that a name gives are not always drawn.

CC1(C)CN(c2ccncc2)c2ccc(S(=O)(=O)c3ccccc3)cc2O1 (as salt: hydrochloride); 112.7 to 120.4 °C
O=C(C1CCCNC1)N1CCOc2cc(S(=O)(=O)c3ccccc3)ccc21 (stereo not drawn) (as salt: hydrochloride); 130.5 to 136.7 °C
O=S(=O)(c1ccccc1)c1ccc2c(c1)OCCN2CCn1ccnc1; 61.5 to 64.4 °C
NCCN1CCOc2ccc(S(=O)(=O)c3ccccc3)cc21 (as salt: HCl); 242.9 to 245.9 °C
O=C(CC1=NCCN1)N1CCOc2cc(S(=O)(=O)c3ccccc3)ccc21; 44 to 47 °C

compound O=C(C1CCNC1)N1CCOc2cc(S(=O)(=O)c3ccccc3)ccc21 (stereo not drawn) (as salt: hydrochloride) , melting point observed: 109.2 to 110.5 °C

compound O=C1COc2ccc(S(=O)(=O)c3ccccc3)cc2N1CC1=NCCN1 (as salt: HCl) , melting point observed: 250 to 252 °C

compound CN(C)CC(=O)N1CCOc2ccc(S(=O)(=O)c3ccccc3)cc21 (as salt: hydrochloride) , melting point observed: 199 to 203 °C

compound N=C(N)NC(=O)N1CCOc2cc(S(=O)(=O)c3ccccc3)ccc21 , melting point observed: 61.2 to 67.3 °C

// provenance: patent US7378415B2
